Sourced from ChEMBL document CHEMBL1142440

- assayOverview: AUC in rat at 1 mg/kg, iv
- Type: ADME, organism-based
- Design: dose 1 mg/kg, route intravenous
- experimentalSetup: plasma
measuredProperty: AUC
Provide a numeric answer, followed by its unit.

The compound listed as COC(=O)c1c(-c2ccccc2)c2cc(Br)ccc2c(=O)n1Cc1ccc(S(C)(=O)=O)cc1 has a reported AUC of 2400 ng·h/mL

###

- measuredTarget: Mitogen-activated protein kinase 3 (Homo sapiens, UniProt P27361)
- Sequence (P27361 whole entry): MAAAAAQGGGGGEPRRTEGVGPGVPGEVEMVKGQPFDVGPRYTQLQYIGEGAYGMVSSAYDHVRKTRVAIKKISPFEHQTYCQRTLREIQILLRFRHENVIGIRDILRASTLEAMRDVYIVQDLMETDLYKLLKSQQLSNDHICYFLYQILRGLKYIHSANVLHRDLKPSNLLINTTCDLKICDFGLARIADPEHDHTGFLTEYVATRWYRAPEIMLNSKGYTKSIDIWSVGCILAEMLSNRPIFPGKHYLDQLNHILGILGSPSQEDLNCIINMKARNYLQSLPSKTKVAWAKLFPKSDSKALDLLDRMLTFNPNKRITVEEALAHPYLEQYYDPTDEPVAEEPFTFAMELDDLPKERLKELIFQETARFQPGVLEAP
- assayOverview: Inhibition of ERK1
This listing pairs compounds with measured IC50.

Item O=C(O)c1c(-c2ccccc2)c2cc(Br)ccc2c(=O)n1CC1CCCCC1 was tested on Mitogen-activated protein kinase 3 (Homo sapiens, UniProt P27361); the reported IC50 is > 1.1 µM

Item COC(=O)c1c(-c2ccccc2)c2cc(Br)ccc2c(=O)n1CC1CCCCC1 was tested on Mitogen-activated protein kinase 3 (Homo sapiens, UniProt P27361); the reported IC50 is > 1.1 µM

Item O=c1c2ccc(Br)cc2c(-c2ccccc2)c(CO)n1CC1CCCCC1 was tested on Mitogen-activated protein kinase 3 (Homo sapiens, UniProt P27361); the reported IC50 is > 1.1 µM

Item COC(=O)c1c(-c2ccccc2)c2cc(Br)ccc2c(=O)n1CCc1ccccc1 was tested on Mitogen-activated protein kinase 3 (Homo sapiens, UniProt P27361); the reported IC50 is > 1.1 µM

Item COC(=O)c1c(-c2ccccc2)c2cc(Br)ccc2c(=O)n1CCCc1ccccc1 was tested on Mitogen-activated protein kinase 3 (Homo sapiens, UniProt P27361); the reported IC50 is > 1.1 µM

Item COC(=O)c1c(-c2ccccc2)c2cc(Br)ccc2c(=O)n1Cc1ccccc1 was tested on Mitogen-activated protein kinase 3 (Homo sapiens, UniProt P27361); the reported IC50 is > 1.1 µM

Item COC(=O)c1c(-c2ccccc2)c2cc(Br)ccc2c(=O)n1Cc1ccc(S(C)(=O)=O)cc1 was tested on Mitogen-activated protein kinase 3 (Homo sapiens, UniProt P27361); the reported IC50 is > 11 µM

###

- assayOverview: Volume of distribution at steady state in rat at 1 mg/kg, iv and 10 mg/kg, po
- Format: ADME, organism-based
- experimentalSetup: in vivo, read-out: Vdss
measuredProperty: Vd (L/kg)
Express your answer in L/kg, writing the number without its unit.

The compound listed as COC(=O)c1c(-c2ccccc2)c2cc(Br)ccc2c(=O)n1Cc1ccc(S(C)(=O)=O)cc1 has a reported Vd of 2.86

###

- assayOverview: Total clearance in rat at 1 mg/kg, iv and 10 mg/kg, po
- Assay type: ADME, organism-based
- experimentalSetup: in vivo
measuredProperty: clearance (mL/min/kg)
Express your answer in mL/min/kg, writing the number without its unit.

The compound listed as COC(=O)c1c(-c2ccccc2)c2cc(Br)ccc2c(=O)n1Cc1ccc(S(C)(=O)=O)cc1 has a reported clearance of 6.98
